Compiled log10 Ki measurements on Autotaxin (Homo sapiens, UniProt Q13822) taken from the literature.
# log10 transformed; quantity=Ki; unit=nM

Some molecules with known log10 Ki results, for comparison:
INSERT INTO measurements (molecule, reading) VALUES
  ('CCc1nc2ccc(N3CCN(CC(=O)N4CCCC(F)C4)CC3)cn2c1N(C)c1nc(-c2ccc(F)cc2)c(C#N)s1 (stereo unspecified)', 1.18),
  ('CCc1nc2ccc(N3CCN(CC(=O)N4CC(OCCF)C4)CC3)cn2c1N(C)c1nc(-c2ccc(F)cc2)c(C#N)s1', 1.23),
  ('CCc1nc2ccc(N3CCN(CC(=O)N4CC(O)C4)CC3)cn2c1N(C)c1nc(-c2ccc(F)cc2)c(C#N)s1', 1.48),
  ('O=C(O)Cc1ccc(-c2ccc(CN3CC(=O)N(C4CCCCC4)C3=O)cc2)cc1', 3.26),
  ('CO[C@](C(=O)Nc1c2c(nn1-c1ccc(Br)cc1)CSC2)(c1ccccc1)C(F)(F)F', 3.83);

Next, consider the following molecule.
Any idea what its log10 Ki is? The molecule is `CC(C)N1C(=O)CN(Cc2ccc(-c3ccc(CC(=O)O)cc3)cc2)C1=O` 3.08
